Target: T1, tCid1 mutant 1 (Schizosaccharomyces pombe, UniProt O13833 33-405, K133A;R137A)
T1 sequence: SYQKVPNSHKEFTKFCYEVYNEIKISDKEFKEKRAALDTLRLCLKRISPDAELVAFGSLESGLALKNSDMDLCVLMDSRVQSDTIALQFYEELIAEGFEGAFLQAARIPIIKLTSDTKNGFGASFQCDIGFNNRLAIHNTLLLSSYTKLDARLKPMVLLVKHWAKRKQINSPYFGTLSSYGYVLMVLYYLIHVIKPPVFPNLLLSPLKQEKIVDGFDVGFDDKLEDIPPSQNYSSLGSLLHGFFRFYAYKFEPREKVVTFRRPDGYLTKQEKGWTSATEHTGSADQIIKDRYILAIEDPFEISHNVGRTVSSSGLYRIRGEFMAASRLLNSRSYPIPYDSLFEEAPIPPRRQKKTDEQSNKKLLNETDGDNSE
Assay: SPR
measurementName: Kd

Req: Write down Kd measured for item GAUUUGACGUUGGUUUUGACG (ssRNA) [21 nt SPR RNA]
Resp: ~200 nM

Source: paper PMC4342108
